Experiment: Encapsulation efficacy, indirect from free drug in supernatant by UV/VIS
Format: physicochemical
Conditions: liposomal system code 3, DSPE-PEG:PC:CHOL; analogue 1 mg/mL
MEASURED QUANTITY: Encapsulation Efficacy (EE %)
Respond with the bare value in %.

- GIVEN SMILES: "Nc1ncnc2c1ncn2-c1nc(O)c2ccccc2n1"
  MEASURED QUANTITY: "Encapsulation Efficacy (EE %)"
  UNIT STRING: "%"
  MEASURED: 65.1
- GIVEN SMILES: "Nc1ccn(-c2nc(O)c3ccccc3n2)c(=O)n1"
  MEASURED QUANTITY: "Encapsulation Efficacy (EE %)"
  UNIT STRING: "%"
  MEASURED: 76.2
- GIVEN SMILES: "Nc1ncnc2c1ncn2-c1nc(OP(=O)(O)O)c2ccccc2n1"
  MEASURED QUANTITY: "Encapsulation Efficacy (EE %)"
  UNIT STRING: "%"
  MEASURED: 50.0

Consider now this further molecule.
Per the record, CC(=O)Nc1ccn(-c2nc(O)c3ccccc3n2)c(=O)n1 has Encapsulation Efficacy (EE %) of 89.9
